So I've got a bunch of compounds here, and I need their IC50 values.
Target: Adenosine A2A receptor (Homo sapiens, UniProt P29274)
Sequence (P29274 whole entry): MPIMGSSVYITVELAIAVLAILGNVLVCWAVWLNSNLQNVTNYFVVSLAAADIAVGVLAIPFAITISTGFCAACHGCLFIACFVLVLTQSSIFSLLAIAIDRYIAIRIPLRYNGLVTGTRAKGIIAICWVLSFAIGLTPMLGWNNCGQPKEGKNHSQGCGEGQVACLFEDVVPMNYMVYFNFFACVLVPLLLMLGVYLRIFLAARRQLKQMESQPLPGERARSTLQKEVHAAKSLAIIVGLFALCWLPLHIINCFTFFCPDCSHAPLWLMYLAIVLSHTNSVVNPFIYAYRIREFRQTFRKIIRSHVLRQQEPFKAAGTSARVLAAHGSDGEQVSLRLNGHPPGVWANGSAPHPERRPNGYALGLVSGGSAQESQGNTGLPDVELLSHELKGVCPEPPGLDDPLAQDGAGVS
Assay: cAMP assay in 293A cells stably expressing the adenosine A2A receptor (CGS21680 stimulation, HTRF)
Format: cell-based
Design: expressed in transfected cells; host or cells: 293A cells (Invitrogen, Cat# R705-07) infected with A2A-expressing lentivirus (custom packaged by Biosettia), puromycin selected
Settings: 293A-A2AR cells, 0.1% BSA, 1 uM CGS; read-out: cAMP (nM) 0.1% BSA, 1 uM CGS

## Input Quick check: IC50 on Adenosine A2A receptor (Homo sapiens, UniProt P29274), item CCc1nn(CC(C)(C)O)nc1COc1nc(N)nc(-c2ccc(F)cc2)c1-c1cc(C)nc(C(F)F)c1 ?
## Output 1280 nM

## Input Quick check: IC50 on Adenosine A2A receptor (Homo sapiens, UniProt P29274), item Cc1cc(-c2c(OCc3ccncc3)nc(N)nc2-c2ccc(F)cc2)cc(C(F)F)n1 ?
## Output 1800 nM

## Input Quick check: IC50 on Adenosine A2A receptor (Homo sapiens, UniProt P29274), item Cc1cc(-c2c(OCc3ncccc3C(C)(C)O)nc(N)nc2-c2ccc(F)cc2)cc(C(F)F)n1 ?
## Output 313 nM

## Input Quick check: IC50 on Adenosine A2A receptor (Homo sapiens, UniProt P29274), item CCc1nn(CC(C)(C)C#N)nc1COc1nc(N)nc(-c2ccc(F)cc2)c1-c1cc(C)nc(C(F)F)c1 ?
## Output 2080 nM

## Input Quick check: IC50 on Adenosine A2A receptor (Homo sapiens, UniProt P29274), item Cc1cc(-c2c(OC[C@H]3CC[C@@H](C(=O)O)CC3)nc(N)nc2-c2ccc(F)cc2)cc(C(F)F)n1 ?
## Output 19900 nM

## Input Quick check: IC50 on Adenosine A2A receptor (Homo sapiens, UniProt P29274), item CCn1nnc(COc2nc(N)nc(-c3cccc(C#N)c3C)c2-c2cc(C)nc(C(F)F)c2)n1 ?
## Output 2120 nM

## Input Quick check: IC50 on Adenosine A2A receptor (Homo sapiens, UniProt P29274), item Cc1cc(-c2c(OCc3nc4n(n3)CCCC4)nc(N)nc2-c2ccc(F)cc2)cc(C(F)F)n1 ?
## Output 1790 nM

###

Biological target: UniProtKB P29274
Assay: Adenosine A2A receptor competitive binding assay (Tag-lite HTRF)
Conditions: Tag-lite adenosine A2A receptor ligand binding, HTRF
Criterion: IC50 strictly less than 0.01 µM. Met: Satisfied. Not met: Not satisfied.

## Input Record Cc1cc(-c2c(OCc3nc(S(C)(=O)=O)cn3C(C)C)nc(N)nc2-c2ccc(F)cc2)cc(C(F)F)n1 : is its IC50 strictly below 0.01 µM?
## Output Not satisfied

## Input Record CCc1nnn(CC)c1COc1nc(N)nc(-c2ccc(F)cc2)c1-c1cc(C)nc(C(F)F)c1 : is its IC50 strictly below 0.01 µM?
## Output Satisfied

## Input Record CCN(CC(C)O)C(=O)COc1nc(N)nc(-c2ccc(F)cc2)c1-c1cc(C)nc(C(F)F)c1 (stereo not drawn) : is its IC50 strictly below 0.01 µM?
## Output Not satisfied

## Input Record Cc1cc(-c2c(OCCOc3cccc(N(C)CCO)n3)nc(N)nc2-c2ccc(F)cc2)cc(C(F)F)n1 : is its IC50 strictly below 0.01 µM?
## Output Satisfied

## Input Record Cc1cc(-c2c(OCC(CO)N(C)c3ccccn3)nc(N)nc2-c2ccc(F)cc2)cc(C(F)F)n1 (stereo not drawn) : is its IC50 strictly below 0.01 µM?
## Output Satisfied

## Input Record CCn1cnnc1COc1nc(N)nc(-c2ccc(F)cc2)c1-c1cc(C)nc(C(F)F)c1 : is its IC50 strictly below 0.01 µM?
## Output Not satisfied

## Input Record Cc1cc(-c2c(OCCOc3ccnc(N(C)CCO)c3)nc(N)nc2-c2ccc(F)cc2)cc(C(F)F)n1 : is its IC50 strictly below 0.01 µM?
## Output Not satisfied

## Input Record Cc1cc(-c2c(OCc3cn(C(C)C)nn3)nc(N)nc2-c2ccc(F)cc2)cc(C(F)F)n1 : is its IC50 strictly below 0.01 µM?
## Output Satisfied

## Input Record Cc1cc(-c2c(OCc3nccn3CCC(=O)O)nc(N)nc2-c2ccc(F)cc2)cc(C(F)F)n1 : is its IC50 strictly below 0.01 µM?
## Output Not satisfied

## Input Record Cc1cc(-c2c(OCC3CCC(C)(O)CC3)nc(N)nc2-c2ccc(F)cc2)cc(C(F)F)n1 (stereo not drawn) : is its IC50 strictly below 0.01 µM?
## Output Not satisfied

## Input Record Cc1cc(-c2c(OCc3ccncn3)nc(N)nc2-c2ccc(F)cc2)cc(C(F)F)n1 : is its IC50 strictly below 0.01 µM?
## Output Satisfied

## Input Record Cc1cc(-c2c(OCc3nnn(CC4CC4)n3)nc(N)nc2-c2ccc(F)cc2)cc(C(F)F)n1 : is its IC50 strictly below 0.01 µM?
## Output Not satisfied

## Input Record Cc1cc(-c2c(OCc3nccn3CCCC(=O)O)nc(N)nc2-c2ccc(F)cc2)cc(C(F)F)n1 : is its IC50 strictly below 0.01 µM?
## Output Satisfied

## Input Record Cc1cc(-c2c(OCc3nccn3CCC(C)(C)C(=O)O)nc(N)nc2-c2ccc(F)cc2)cc(C(F)F)n1 : is its IC50 strictly below 0.01 µM?
## Output Not satisfied
